Test system: Triticum aestivum (TRZAW)
Experiment: B2 Post-Emergence Efficacy - Test 2
Assay type: in vivo
Details: 125 g/Ha, 15 days after application, 0-100 scale
Overview of reported Herbicidal activity TRZAW across a group of compounds:
observable: Herbicidal activity TRZAW

[[record]]
smiles_record = "Cc1nn(C)c(=O)c(-c2c(F)ccc(Cl)c2CCc2ccccc2C(F)(F)F)c1O"
measured_number = 60

[[record]]
smiles_record = "Cc1nn(C)c(=O)c(-c2c(F)ccc(Cl)c2CCc2ccc(Cl)cc2)c1OC(=O)C(C)C"
measured_number = 30

[[record]]
smiles_record = "Cc1nn(C)c(=O)c(-c2c(F)ccc(Cl)c2CCc2ccc(C(F)(F)F)nc2)c1O"
measured_number = 70

[[record]]
smiles_record = "Cc1nn(C)c(=O)c(-c2c(F)ccc(Cl)c2CCc2ccc(F)cc2)c1OC(=O)C(C)C"
measured_number = 20

[[record]]
smiles_record = "Cc1nn(C)c(=O)c(-c2c(F)ccc(Cl)c2CCc2ccc(C#N)cc2)c1O"
measured_number = 30

[[record]]
smiles_record = "Cc1nn(C)c(=O)c(-c2c(F)ccc(Cl)c2CCc2ccc(F)cc2)c1O"
measured_number = 20

